Source listed as ChEMBL document CHEMBL1157729.

- Tested on: Vero
- Test details: Cytotoxicity against african green monkey Vero cells after 48 hrs by neutral red assay
- Type: cell-based
- Condition details: chlorocebus sabaeus
Property name: IC50

Inquiry: Sample COc1ccc2[nH]c3c(c2c1)CCNC3C1=C[C@@]2(O)CC/C=C\CCCCN3CC[C@@H]1[C@]1(C[C@@H]4/C=C\CCCCN4[C@H]12)C3 (some centres not stated) — what was its IC50?
Reply text: 0.2 µg/mL

Inquiry: Form field: reported IC50 of CC(=O)Oc1cccc2c1[nH]c1c(C3=C[C@@]4(O)CC/C=C\CCCCN5CC[C@@H]3[C@]3(C[C@@H]6/C=C\CCCCN6[C@H]34)C5)nccc12
Reply text: 670 µg/mL

Inquiry: For the compound shown here, CC(C)Cn1c2ccccc2c2ccnc(C3=C[C@@]4(O)CC/C=C\CCCCN5CC[C@@H]3[C@]3(C[C@@H]6/C=C\CCCCN6[C@H]34)C5)c21 , give the reported IC50.
Reply text: 0.4 µg/mL

Inquiry: So what's the measured IC50 for this one? COC(=O)c1cc2c([nH]c3ccccc32)c(C2=C[C@@]3(O)CC/C=C\CCCCN4CC[C@@H]2[C@]2(C[C@@H]5/C=C\CCCCN5[C@H]23)C4)n1
Reply text: 0.2 µg/mL
